- Test system: MCF7 breast
- assayComment: NCI tumour cell line growth inhibition, 48 h
# maps each entry to its TGI
property: TGI

compound: COc1ccc(C(=O)c2ccc(OC)cc2OC)cc1
measuredTarget: MCF7 breast
result: > 100 µM

compound: Cc1nc2c(n1CCCl)C(=O)c1ccccc1C2=O
measuredTarget: MCF7 breast
result: 41.6 µM

compound: Nc1ccccc1C(=O)NNC(=O)c1ccccc1N
measuredTarget: MCF7 breast
result: > 100 µM

compound: CCC(C)C(NC(=O)C(CCCCN)NC(=O)C(NC(=O)C(CCC(N)=O)NC(=O)C(CCCNC(=N)N)NC(C)=O)C(C)CC)C(=O)NC(Cc1c[nH]c2ccccc12)C(=O)NC(Cc1ccccc1)C(=O)NC(CCC(N)=O)C(=O)NC(CC(N)=O)C(=O)NC(CCCNC(=N)N)C(=O)NC(CCCNC(=N)N)C(=O)NC(CCSC)C(=O)NC(CCCCN)C(=O)NC(Cc1c[nH]c2ccccc12)C(=O)NC(CCCCN)C(=O)NC(CCCCN)C(N)=O (centres undefined)
measuredTarget: MCF7 breast
result: > 50 µM

---

- System: U251 CNS
- assayComment: NCI tumour cell line growth inhibition, 48 h
property: log10 of TGI (log10 of the value in µM)

compound: COc1cc(-c2ccc(-[n+]3nc(-c4ccc([N+](=O)[O-])cc4)nn3-c3ccc([N+](=O)[O-])cc3)c(OC)c2)ccc1-[n+]1nc(-c2ccc([N+](=O)[O-])cc2)nn1-c1ccc([N+](=O)[O-])cc1
measuredTarget: U251 CNS
numericResult: 1.59
//
compound: C=C1C(=O)O[C@H]2[C@H]1CC/C(COC(=O)N[C@@H](Cc1c[nH]c3ccccc13)C(=O)OC)=C\CC[C@@]1(C)O[C@@H]21
measuredTarget: U251 CNS
numericResult: 0.86
//
compound: O=C(c1cccs1)c1c(C(F)(F)F)n([O-])c2cc(C(F)(F)F)ccc2[n+]1=O
measuredTarget: U251 CNS
numericResult: -0.54
//
compound: O=C1CS(=O)(=O)C(c2cccc(Oc3ccccc3)c2)N1c1cccc(Cl)c1Cl (stereo not drawn)
measuredTarget: U251 CNS
numericResult: 1.57
//
compound: OC1C=C2C3CN(Cc4cc5c(cc43)OCO5)[C@H]2C[C@@H]1O (stereo partly drawn)
measuredTarget: U251 CNS
numericResult: 1.70

---

- System: K-562 leukemia
- assayComment: NCI tumour cell line growth inhibition, 48 h
*1 amine or outer side, *2 acyl side, *3 side chain or, on linkers, in order; H or OH if unused. Where a SMILES comes first, the peptide text is derived from it. CO = O=C([*:1])[*:2]
Recorded TGI values for a group of molecules are listed next.

molecule: C/C(=C\c1ccn(-c2ccc(N)cc2C(F)(F)F)n1)[C@@H]1C[C@@H]2O[C@]2(C)CCC[C@H](C)[C@H](O)[C@@H](C)C(=O)C(C)(C)[C@@H](O)CC(=O)O1
measuredTarget: K-562 leukemia
TGI: > 11.1 µM

molecule: CC1=CC[C@@]2(C)[C@@H]([C@@H]1C)[C@H]1CC[C@@H]3[C@@]4(C)CC[C@H](O)C(C)(C)[C@@H]4CC[C@@]3(C)[C@]1(C)C[C@@H]2O
measuredTarget: K-562 leukemia
TGI: > 100 µM

molecule: O=S(=O)([N-]c1nc2ccccc2nc1-[n+]1ccccc1)c1ccccc1
measuredTarget: K-562 leukemia
TGI: > 100 µM

molecule: CCC/C(Cl)=N\OC(=O)Nc1ccc(Br)cc1
measuredTarget: K-562 leukemia
TGI: 4.15 µM

molecule: OC1C=C2C3CN(Cc4cc5c(cc43)OCO5)[C@H]2C[C@@H]1O (some centres undefined)
measuredTarget: K-562 leukemia
TGI: > 100 µM

molecule: COc1ccc2c(c1)/C(=C/c1c(-c3ccc(C)cc3)nc3sc(C)cn13)C(=O)N2
measuredTarget: K-562 leukemia
TGI: > 100 µM

molecule: Cc1ccc2nc(CN3CCCCC3)cc(=O)n2c1
measuredTarget: K-562 leukemia
TGI: > 100 µM

molecule: BrC12C3C4C5C(C(C43)C13OCCO3)C52 (centres undefined)
measuredTarget: K-562 leukemia
TGI: > 100 µM

molecule: COc1ccc2cc(CNCCCN3CCN(CCCNCc4ccc5cc(OC)ccc5c4)CC3)ccc2c1
measuredTarget: K-562 leukemia
TGI: 0.366 µM

molecule: CCOC(=O)C1=C(C)C2C3C(=O)NC(=O)C3C1(C)C1C(=O)NC(=O)C21 (centres undefined)
measuredTarget: K-562 leukemia
TGI: > 100 µM

molecule: CC(C)C(NC(=O)C(CCCN=C(N)N)NC(=O)NC(Cc1ccccc1)C(=O)O)C(=O)NC(C=O)CCCN=C(N)N (stereo not drawn) ({Phe-CO}-Arg-Val-Arg-aldehyde; configuration not given here)
measuredTarget: K-562 leukemia
TGI: > 5 µM

molecule: O=C1OC(c2ccccc2)=N/C1=C/c1cccs1
measuredTarget: K-562 leukemia
TGI: > 100 µM

molecule: C1=Cc2nc1c(-c1ccccc1)c1ccc([n-]1)c(-c1ccccc1)c1nc(c(-c3ccccc3)c3ccc([n-]3)c2-c2ccccc2)C=C1.[Zn+2]
measuredTarget: K-562 leukemia
TGI: > 100 µM

molecule: N#Cc1c(SCc2ccccc2)nc2[nH]c(=S)[nH]c(=S)c2c1-c1ccco1
measuredTarget: K-562 leukemia
TGI: > 100 µM

molecule: CC1(C)CC2=NOS3=C2C(=NO3)C1c1ccccn1 (centres undefined)
measuredTarget: K-562 leukemia
TGI: 62.8 µM

molecule: CC1=C/C(=N\N(C)C)C(C(O)(C(F)(F)F)C(F)(F)F)C(C)(C)C1 (centres undefined)
measuredTarget: K-562 leukemia
TGI: > 100 µM

molecule: C/C=C/C/C=C/CCC(=O)C1OC1C(N)=O (centres undefined)
measuredTarget: K-562 leukemia
TGI: 36.8 µM

molecule: C#CCOC(=O)C(N)CS (centres undefined)
measuredTarget: K-562 leukemia
TGI: > 100 µM

molecule: CCCCC1(OC(=O)CCC(=O)O)CCC2(CCC(C)C(C/C=C(C)/C=C/C(O)C(C)/C=C/C(=O)O)O2)OC1CC/C(C)=C/C(=O)O (centres undefined)
measuredTarget: K-562 leukemia
TGI: 9.99 µM

---

- System: SW-620 colon
- assayComment: NCI tumour cell line growth inhibition, 48 h

molecule: CC1CC(C)C(=O)C(C(=O)CC2CC(=O)NC2=O)C1 (stereo not drawn)
TGI: > 100 µM
//
molecule: COc1c(C(CC(C)C)OC(C)=O)ccc2c1C(=O)OCc1cc(C)cc(O)c1O2 (stereo not drawn)
TGI: 31.5 µM
//
molecule: C/C=C/C/C=C/CCC(=O)C1OC1C(N)=O (stereo not drawn)
TGI: 42.3 µM
//
molecule: Cc1ccc(-c2nc3nc(-c4ccc(Cl)cc4)nc(N4CCCNCC4)c3o2)cc1
TGI: 3.32 µM
//
molecule: CC(C)(C)c1cc(N=NC(=S)NCc2ccccc2)cc(C(C)(C)C)c1O
TGI: > 100 µM
//
molecule: CO[C@H]1C[C@@H]2CC[C@@H](C)[C@@](O)(O2)C(=O)C(=O)N2CCCC[C@H]2C(=O)O[C@H]([C@H](C)C[C@@H]2CC[C@@H](OC(=O)C(C)(CO)CO)[C@H](OC)C2)CC(=O)[C@H](C)/C=C(\C)[C@@H](O)[C@@H](OC)C(=O)[C@H](C)C[C@H](C)/C=C/C=C/C=C/1C
TGI: > 100 µM
//
molecule: CSC1=N/C(=C\c2ccc(Cl)cc2)C(=O)N1CN1CCOCC1
TGI: > 100 µM
//
molecule: CC1=C(N(C)C)C(=O)c2nc3n(c2C1=O)CCC3OC(N)=O (stereo not drawn)
TGI: 33.6 µM
//
molecule: Cn1cc(C(=O)/C(Cl)=C(\Cl)C(=O)O)c2ccccc21
TGI: > 100 µM
//
molecule: COc1cc2c(cc1OCCCCCN1CCN(c3cc(=O)oc4c(C)c(OC)ccc34)CC1)N=C[C@@H]1CCCN1C2=O
TGI: 4.26 µM
//
molecule: CC1C(c2ccccc2)=CCON1c1ccccc1 (stereo not drawn)
TGI: > 100 µM
//
molecule: CC1=Cc2cc3[n-]c(cc4nc(cc5[n-]c(cc1n2)c(C)c5CCC(=O)O)C(CCC(=O)O)=C4C)cc3C.[Cu+2]
TGI: > 79.6 µM
//
molecule: Clc1cccc(Cl)c1C1SCc2nc3cc4ccccc4cc3n21 (stereo not drawn)
TGI: > 100 µM

---

- System: SK-MEL-2 melanoma
- assayComment: NCI tumour cell line growth inhibition, 48 h; in the data active = GI50 below about 0.43 µM; inactive = the rest
Classes used: t (active), f (inactive)

molecule: CNC(=O)c1ccc(Nc2nc(OC3CCCC3)c3c(-c4ccc5nc(C)oc5c4)c[nH]c3n2)c(OC)c1
classification: f
--
molecule: C/C(=C\c1ccn(-c2ccc(N)cc2C(F)(F)F)n1)[C@@H]1C[C@@H]2O[C@]2(C)CCC[C@H](C)[C@H](O)[C@@H](C)C(=O)C(C)(C)[C@@H](O)CC(=O)O1
classification: t
--
molecule: COc1ccc2c(c1)C(=O)c1c-2c(N2CCN(C(=O)CN(C)C)CC2)nc2ccccc12
classification: f
--
molecule: C=C1C(=O)O[C@H]2[C@H]1CC/C(Cn1cc(Cn3ccc4cc(Cl)ccc43)nn1)=C\CC[C@@]1(C)O[C@@H]21
classification: f
--
molecule: Nc1c(C(=O)Nc2cccc3ccccc23)sc2nc3c(cc12)CCCCC3
classification: f
--
molecule: Cc1c(N(C(=O)c2cc(-c3cc(Cl)ccc3C(=O)N3Cc4ccccc4C[C@H]3CN3CCOCC3)n(C)c2C)c2ccc(O)cc2)cc(C#N)n1C
classification: f
--
molecule: N#C/C(=C\c1ccc(Br)cc1)n1nnc2cc(F)c(F)cc21
classification: f
--
molecule: CC1(C)OC(=O)C=C(O)O1.CC1(C)OC(=O)C=C(O)O1.CCO.Oc1ccc2c(c1)CCC2.[Ti]
classification: f
--
molecule: CC1=C([Se]CC(OC(=O)[C@@H](CSSC(C)(C)C)NC(=O)C(C)(C)C)C(=O)NCCCCCC(=O)OCc2ccccc2)C(=O)c2ccccc2C1=O (some centres undefined)
classification: f
--
molecule: C=C1C(=O)O[C@H]2[C@H]1CC/C(COC(=O)N[C@@H](Cc1c[nH]c3ccccc13)C(=O)OC)=C\CC[C@@]1(C)O[C@@H]21
classification: f
--
molecule: CC(=O)[CH-]C(C)=O.CC(=O)[CH-]C(C)=O.CC(=O)[CH-]C(C)=O.[Cl-].[Hf+4]
classification: f
--
molecule: COc1ccc2c(c1)/C(=C/c1c(-c3ccc(C)cc3)nc3sc(C)cn13)C(=O)N2
classification: f
--
molecule: COc1cc(/C=C/C(=O)CC(=O)/C=C/c2ccc(OC(=O)CCNC34CC5CC(CC(C5)C3)C4)c(OC)c2)ccc1OC(=O)CCNC12CC3CC(CC(C3)C1)C2
classification: f
--
molecule: Cc1cc(Nc2ncc(Cl)c(Nc3ccccc3S(=O)(=O)C(C)C)n2)c(OC(C)C)cc1C1CCNCC1
classification: f
--
molecule: O=[N+]([O-])c1ccccc1/C=C/C=C1c2ccccc2-c2ccccc21
classification: f
--
molecule: N#C/C(=C\c1ccc(Cl)cc1)n1nnc2cc(F)c(F)cc21
classification: f
--
molecule: C[C@]12CC[C@H]3[C@@H](CC=C4C[C@@H](O)CC[C@@]43C)[C@@H]1C/C(=C\c1cccc(OCCCn3ccnc3)c1)[C@@H]2O
classification: f
--
molecule: CCSc1nc(=S)[nH]c2[nH]ncc12
classification: f
--
molecule: N#Cc1c(SCc2ccccc2)nc2[nH]c(=S)[nH]c(=S)c2c1-c1ccco1
classification: f

These measurements were taken from PubChem BioAssay (NCI).
